target: T1, hPD-L1-His (human, UniProt Q9NZQ7 19-238); assay: SPR (Biacore T200), antibody on Protein A chip, hPD-L1-His injected, 1:1 fit
T1 construct: Bought protein; also called hPD-L1-His (manufactured by Edison); not shown: His tag
T1 sequence (Q9NZQ7 19-238 limits assumed): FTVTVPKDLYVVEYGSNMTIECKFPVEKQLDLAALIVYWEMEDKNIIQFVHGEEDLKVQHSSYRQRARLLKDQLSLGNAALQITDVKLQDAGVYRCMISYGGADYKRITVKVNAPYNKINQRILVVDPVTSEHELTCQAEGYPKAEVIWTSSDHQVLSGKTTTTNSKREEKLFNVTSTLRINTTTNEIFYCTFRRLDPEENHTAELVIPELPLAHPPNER
Measurement type: koff
Answer format: number, then unit.

Field: example entries. Status: answers known.
Binder	koff
6A11-H2K4-IgG1 (antibody, V domains shown) VH: EVQLVESGGGLVQPGGSLRLSCAASGFTFSSFGMHWVRQAPGKGLEWVSYISSGSNTIYYADTVKGRFTISRDNAKNSLYLQMNSLRAEDTAVYYCTRNGYDGWYAMDYWGQGTTVTVSS VL: EIVLTQSPATLSASPGERATLSCSASSSVSYIHWFQQKPGQSPRRWIYDTSKLASGIPARFSGSGSGTSYTLTISSMEPEDAATYYCQQWSTNPFTFGQGTKLEIKR	0.00153 s⁻¹
6A11-H1K4-IgG1 (antibody, V domains shown) VH: EVQLVESGGGLVQPGGSLRLSCAASGFTFSSFGMHWVRQAPGKGLEWVSYISSGSNTIYYADTVKGRFTISRDNAKNSLYLQMNSLRAEDTAVYYCARNGYDGWYAMDYWGQGTTVTVSS VL: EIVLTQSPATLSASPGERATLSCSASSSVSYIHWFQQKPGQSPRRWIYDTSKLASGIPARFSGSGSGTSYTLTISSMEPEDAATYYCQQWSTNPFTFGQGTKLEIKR	0.00124 s⁻¹

Turning now to a further binder:
input: Item under review: 6A11-H3K4-IgG1 (antibody, V domains shown) VH: EVQLVESGGGLVQPGGSRRLSCAASGFTFSSFGMHWVRQAPGKGLEWVAYISSGSNTIYYADTVKGRFTISRDNAKNSLYLQMNSLRAEDTAVYYCTRNGYDGWYAMDYWGQGTTVTVSS VL: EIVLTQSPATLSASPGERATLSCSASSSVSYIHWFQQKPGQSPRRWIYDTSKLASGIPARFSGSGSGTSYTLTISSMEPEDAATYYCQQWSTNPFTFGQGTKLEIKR . Reported koff?
output: 0.00168 s⁻¹

Data origin: patent US20220073621A1
